Source of measurements: paper PMC10217883

system.tested: Ld6PGD (Leishmania donovani, UniProt Q18L02)
assay.method.text: Dose-response of gold(I)-based compounds against recombinant Ld6PGD (NADPH fluorescence)
Type: biochemical
condition.description: IC50 for recombinant protein Ld6PGD, substrates close to KM (25 µM 6PG, 20 µM NADP+), 10 min incubation with enzyme
measure: IC50 (µM)

>>> value_observed("CC[P](CC)(CC)=[Au][S][C@@H]1O[C@H](COC(C)=O)[C@@H](OC(C)=O)[C@H](OC(C)=O)[C@H]1OC(C)=O")
8.6

* * *

system.tested: UniProt Q8IKT2
Sequence (Q8IKT2 entry or part of it): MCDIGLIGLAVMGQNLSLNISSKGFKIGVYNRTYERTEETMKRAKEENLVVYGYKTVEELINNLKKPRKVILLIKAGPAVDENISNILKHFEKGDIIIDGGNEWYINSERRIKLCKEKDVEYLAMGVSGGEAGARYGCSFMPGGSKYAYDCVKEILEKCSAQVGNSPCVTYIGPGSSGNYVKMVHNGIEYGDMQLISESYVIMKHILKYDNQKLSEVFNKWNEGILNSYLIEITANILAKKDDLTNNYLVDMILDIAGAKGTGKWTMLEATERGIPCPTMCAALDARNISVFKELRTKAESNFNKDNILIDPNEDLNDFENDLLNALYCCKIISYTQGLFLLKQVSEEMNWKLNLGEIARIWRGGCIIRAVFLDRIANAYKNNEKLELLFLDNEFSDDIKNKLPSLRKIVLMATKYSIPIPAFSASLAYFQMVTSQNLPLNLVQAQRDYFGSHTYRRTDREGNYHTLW
assay.method.text: Dose-response against recombinant Pf6PGD (NADPH fluorescence)
measure: IC50 (µM)

>>> value_observed("CC[P](CC)(CC)=[Au][S][C@@H]1O[C@H](COC(C)=O)[C@@H](OC(C)=O)[C@H](OC(C)=O)[C@H]1OC(C)=O")
20.1
